Reference for the values: paper PMC5540273

# %Inh annotations
system: AKT1; conditions: concentration: 1 μM, replicates: in singlicate; n = 1;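 also: KINOMEscan kinase panel screen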
Recorded Metric: %Inh (%)

>>> experimental_result("CN1C(=O)C(Nc2cc(Cl)c(O)c(Cl)c2)=C(c2ccc(Cl)cc2)C1=O")
0
>>> experimental_result("CN(C)c1cc(-c2ccc3c(N)n[nH]c3c2)nc(N)n1")
0
>>> experimental_result("CCc1nc(-c2cccc(C)c2)c(-c2ccncc2)s1")
0
>>> experimental_result("C[C@@H]1CC[C@H](C(=O)NC2CCCCC2)CN1c1cc(-c2ccc3c(N)n[nH]c3c2)nc(N)n1")
0
>>> experimental_result("O=C(NCCNc1ccnc(Nc2ccc(F)cc2)n1)Nc1ccc2c(c1)OCO2")
0
>>> experimental_result("CCCC(=O)Nc1n[nH]c2ncc(-c3cccc4ccccc34)cc12")
0
>>> experimental_result("Cc1ccccc1COc1cc(-n2cnc3cc(Cl)ccc32)sc1C(N)=O")
0
>>> experimental_result("Cc1cccc(-c2nc(Nc3ccc4c(cnn4C)c3)c3ccccc3n2)n1")
21
>>> experimental_result("Nc1n[nH]c2nnc(-c3ccccc3)c(-c3ccccc3)c12")
0
>>> experimental_result("COc1cc(Nc2nccc(N3CCC(NC(=O)C(C)c4ccc(Cl)cc4)C3)n2)cc(OC)c1OC (stereo not shown)")
0
>>> experimental_result("CCS(=O)(=O)c1ccc(OC)c(Nc2ncc(-c3ccc(F)cc3)o2)c1.Cl")
0
>>> experimental_result("O=C(Nc1ccc2c(c1)OCO2)NC1CCN(c2ccnc(NCc3ccc(F)cc3)n2)CC1")
0
>>> experimental_result("COC(=O)c1c(-c2ccccc2)c2cc(Br)ccc2c(=O)n1Cc1ccc(S(C)(=O)=O)cc1")
14
>>> experimental_result("Cc1c(Cn2c(C)nn3c(=O)cc(N4CCO[C@H](C)C4)nc23)cccc1C(F)(F)F")
0
>>> experimental_result("Cc1nc(N(C)[C@H]2CN(C(=O)CC#N)CC[C@H]2C)c2cc[nH]c2n1")
0
>>> experimental_result("OCCCNc1nccc(-c2c(-c3cccc(C(F)(F)F)c3)nn3cc(C(F)(F)F)ccc23)n1")
0
>>> experimental_result("COC(=O)c1c(-c2ccccc2)c2cc(C)ccc2c(=O)n1Cc1ccccc1")
0
>>> experimental_result("Fc1cccc(CSc2nnc(-c3ccc4c(c3)CCO4)o2)c1")
12
>>> experimental_result("CCCNC(=O)Nc1ccc(Oc2ncnc3ccn(C)c23)cc1")
7

====

tested on: TNIK; settings: concentration: 1 μM, replicates: in singlicate; n = 1
Recorded Metric: %Inh (%)

>>> experimental_result("COc1ccc(CNC(=O)NC2CCN(c3ccnc(Nc4ccc(F)cc4)n3)C2)cc1 (stereo not drawn) [GSK1379706]")
0
>>> experimental_result("CN1C(=O)C(Nc2ccccc2)=C(c2ccccc2)C1=O [SB-300079]")
7
>>> experimental_result("Cc1ccc(-c2ccc3c(ccc4sc5c(c43)NC[C@@H](C)N=C5N(C)C)n2)cn1")
2
>>> experimental_result("CCS(=O)c1ccc(-c2coc3ccc(-c4nnc(C)o4)cc23)cc1 (stereo not drawn)")
12
>>> experimental_result("Nc1nc(-c2ccccc2F)c(-c2ccnc3ccccc23)s1 [GW560459]")
65
>>> experimental_result("CCC(=O)c1c(-c2ccccc2)c2cc(Cl)ccc2c(=O)n1Cc1cc(S(C)(=O)=O)n(CC(N)=O)n1")
4
>>> experimental_result("COc1cc(OC)cc(-c2cc3cnc(N)nc3nc2NC(=O)NC(C)(C)C)c1")
0
>>> experimental_result("O=C(Nc1ccc2c(c1)OCO2)NC1CCN(c2ccnc(NCc3ccc(F)cc3)n2)CC1 [GSK1379859]")
0
>>> experimental_result("COc1ccc(-n2cnc3c(N)ncnc32)cc1 [SKF-97236]")
18
